assay target: D(2) dopamine receptor (Homo sapiens) (UniProt P14416)
Sequence (P14416 whole entry, looked up): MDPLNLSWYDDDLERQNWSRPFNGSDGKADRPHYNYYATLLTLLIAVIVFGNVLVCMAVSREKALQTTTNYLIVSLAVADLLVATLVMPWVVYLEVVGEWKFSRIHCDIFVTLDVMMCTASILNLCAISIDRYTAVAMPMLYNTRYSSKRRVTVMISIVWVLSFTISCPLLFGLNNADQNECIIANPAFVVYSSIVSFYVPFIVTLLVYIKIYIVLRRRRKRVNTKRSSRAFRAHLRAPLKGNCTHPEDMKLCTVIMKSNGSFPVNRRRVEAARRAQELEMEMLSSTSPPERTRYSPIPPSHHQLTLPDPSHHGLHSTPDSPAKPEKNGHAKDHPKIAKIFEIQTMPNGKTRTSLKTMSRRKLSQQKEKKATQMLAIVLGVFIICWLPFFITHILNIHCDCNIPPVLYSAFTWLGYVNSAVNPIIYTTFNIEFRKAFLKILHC
method description: HTS Assay for Allosteric Agonists of the Human D2 Dopamine Receptor: Primary Screen for Agonists; also: 0% is about no effect
condition context: HEK293 T-REx D2 cells, calcium flux agonist mode; at 2 µM; active compounds read high
In all, about 340,000 compounds went through this assay and about 1,800 (0.53%) were called active. The full list was thinned out, with actives kept by preference.
measured endpoint: activation (%)

[
  {
    "molecule": "O=C(CC1NCCNC1=O)Nc1cc(Cl)cc(Cl)c1 (stereo not drawn)",
    "assay target": "D(2) dopamine receptor (Homo sapiens) (UniProt P14416)",
    "assay result": -0.701
  },
  {
    "molecule": "CCC1=Nc2cc(C(=O)NCC(C)c3ccccc3)ccc2Sc2ccc(C)cc21 (stereo not drawn)",
    "assay target": "D(2) dopamine receptor (Homo sapiens) (UniProt P14416)",
    "assay result": -0.272
  },
  {
    "molecule": "OC(COCc1ccco1)CN1CCN(c2ccccc2)CC1 (stereo not drawn)",
    "assay target": "D(2) dopamine receptor (Homo sapiens) (UniProt P14416)",
    "assay result": 85.6
  },
  {
    "molecule": "O=C(Cc1ccc(Br)cc1)N1CCN(c2ccccn2)CC1",
    "assay target": "D(2) dopamine receptor (Homo sapiens) (UniProt P14416)",
    "assay result": 0.551
  },
  {
    "molecule": "CCN1CCCC1CNC(=O)c1cc2c(=O)n(C)c3ccccc3c2n1C (stereo not drawn)",
    "assay target": "D(2) dopamine receptor (Homo sapiens) (UniProt P14416)",
    "assay result": 1.59
  },
  {
    "molecule": "CCCCCn1c(=O)[nH]c2cc(C(=O)NCCCN3CCCCC3C)ccc2c1=O (stereo not drawn)",
    "assay target": "D(2) dopamine receptor (Homo sapiens) (UniProt P14416)",
    "assay result": 1.64
  },
  {
    "molecule": "O=[N+]([O-])c1ccc(N2CCN(CC(O)COc3ccccc3)CC2)cc1 (stereo not drawn)",
    "assay target": "D(2) dopamine receptor (Homo sapiens) (UniProt P14416)",
    "assay result": -0.607
  },
  {
    "molecule": "O=C(NC1CCCCC1)c1ccc2c(=O)n(CC3CCCO3)c(=O)[nH]c2c1 (stereo not drawn)",
    "assay target": "D(2) dopamine receptor (Homo sapiens) (UniProt P14416)",
    "assay result": 31.5
  },
  {
    "molecule": "Cc1nc2nc(SCC(=O)NC3CCC(C)CC3)nn2c(C)c1Cc1ccccc1Cl (stereo not drawn)",
    "assay target": "D(2) dopamine receptor (Homo sapiens) (UniProt P14416)",
    "assay result": -0.0264
  },
  {
    "molecule": "O=C1c2cccc3c([N+](=O)[O-])ccc(c23)C(=O)N1CC1CCCO1 (stereo not drawn)",
    "assay target": "D(2) dopamine receptor (Homo sapiens) (UniProt P14416)",
    "assay result": 3
  },
  {
    "molecule": "COc1ccccc1CNC(=O)CCn1c(=O)c2ccccc2n(CC(=O)Nc2ccc(Br)cc2F)c1=O",
    "assay target": "D(2) dopamine receptor (Homo sapiens) (UniProt P14416)",
    "assay result": -0.617
  },
  {
    "molecule": "Cn1c(CCN2CCCCCC2)nc2cc(NC(=O)Nc3ccccc3)ccc21",
    "assay target": "D(2) dopamine receptor (Homo sapiens) (UniProt P14416)",
    "assay result": 1.58
  },
  {
    "molecule": "CN1C(=O)c2cccc3c(N)ccc(c23)C1=O",
    "assay target": "D(2) dopamine receptor (Homo sapiens) (UniProt P14416)",
    "assay result": 109
  },
  {
    "molecule": "CCOC(=O)c1c(NC(C)=O)c2c3c(sc2n1Cc1c(C)cc(C)cc1C)CCCC3",
    "assay target": "D(2) dopamine receptor (Homo sapiens) (UniProt P14416)",
    "assay result": 0.0213
  },
  {
    "molecule": "O=C(CN1CCN(c2ccccn2)CC1)NCc1cccs1",
    "assay target": "D(2) dopamine receptor (Homo sapiens) (UniProt P14416)",
    "assay result": 18.2
  },
  {
    "molecule": "O=C1N(Cc2ccccc2)c2ccc(Cl)cc2C1(O)c1c[nH]c2ccccc12 (stereo not drawn)",
    "assay target": "D(2) dopamine receptor (Homo sapiens) (UniProt P14416)",
    "assay result": 0.529
  },
  {
    "molecule": "Cc1nn(C)cc1N1C(=O)c2cccc3c(N)ccc(c23)C1=O",
    "assay target": "D(2) dopamine receptor (Homo sapiens) (UniProt P14416)",
    "assay result": 74
  },
  {
    "molecule": "Cn1nnnc1SCCCNCc1ccc(Cl)cc1",
    "assay target": "D(2) dopamine receptor (Homo sapiens) (UniProt P14416)",
    "assay result": 0.973
  },
  {
    "molecule": "CC(C(=O)O)N1C(=O)c2cccc3cccc1c23 (stereo not drawn)",
    "assay target": "D(2) dopamine receptor (Homo sapiens) (UniProt P14416)",
    "assay result": 0.197
  },
  {
    "molecule": "OC(COCC1COc2ccccc2O1)CN1CCN(c2ccc(F)cc2)CC1 (stereo not drawn)",
    "assay target": "D(2) dopamine receptor (Homo sapiens) (UniProt P14416)",
    "assay result": 8.89
  },
  {
    "molecule": "CCOCCCn1c(SCC(=O)Nc2ccc(CC)cc2)nc2ccccc2c1=O",
    "assay target": "D(2) dopamine receptor (Homo sapiens) (UniProt P14416)",
    "assay result": 0.545
  },
  {
    "molecule": "COc1ccc(Cl)cc1NC(=O)Cn1c(=O)c2ccccc2n2nncc12",
    "assay target": "D(2) dopamine receptor (Homo sapiens) (UniProt P14416)",
    "assay result": 0.159
  },
  {
    "molecule": "CC(C(=O)N(C)CC(=O)Nc1ccccc1C(F)(F)F)N1C(=O)c2ccccc2C1=O (stereo not drawn)",
    "assay target": "D(2) dopamine receptor (Homo sapiens) (UniProt P14416)",
    "assay result": -0.167
  },
  {
    "molecule": "CCOc1ccccc1C(=O)NC1(C(F)(F)F)NC(=O)N(CCc2ccc(OC)c(OC)c2)C1=O (stereo not drawn)",
    "assay target": "D(2) dopamine receptor (Homo sapiens) (UniProt P14416)",
    "assay result": -1.49
  },
  {
    "molecule": "O=C(CN1CCN(c2ncccn2)CC1)Nc1ccccc1C(F)(F)F",
    "assay target": "D(2) dopamine receptor (Homo sapiens) (UniProt P14416)",
    "assay result": 57.8
  },
  {
    "molecule": "Fc1ccc(-c2nc(Nc3cccc(Cl)c3)nc3c2COc2ccccc2-3)cc1",
    "assay target": "D(2) dopamine receptor (Homo sapiens) (UniProt P14416)",
    "assay result": -1.77
  },
  {
    "molecule": "O=C(CSc1n[nH]c(=O)n1-c1ccccc1)Nc1ccccc1C(F)(F)F",
    "assay target": "D(2) dopamine receptor (Homo sapiens) (UniProt P14416)",
    "assay result": 0.222
  },
  {
    "molecule": "O=C(CC1NCCc2ccccc21)Nc1cccc(Cl)c1 (stereo not drawn)",
    "assay target": "D(2) dopamine receptor (Homo sapiens) (UniProt P14416)",
    "assay result": 35.2
  },
  {
    "molecule": "Cn1c(C(=O)NCCCN2CCN(c3cccc(Cl)c3)CC2)cc2c(=O)n(C)c3ccccc3c21",
    "assay target": "D(2) dopamine receptor (Homo sapiens) (UniProt P14416)",
    "assay result": 60.1
  },
  {
    "molecule": "CCN(CC)c1ccc(NC(=O)CN2CCN(c3ccccn3)CC2)cc1",
    "assay target": "D(2) dopamine receptor (Homo sapiens) (UniProt P14416)",
    "assay result": 26.5
  },
  {
    "molecule": "O=C(CN1CCN(c2ccccn2)CC1)Nc1ccc(Br)cc1",
    "assay target": "D(2) dopamine receptor (Homo sapiens) (UniProt P14416)",
    "assay result": 43.9
  },
  {
    "molecule": "O=S(=O)(c1cccs1)N1CCN(CCOc2ccccc2)CC1",
    "assay target": "D(2) dopamine receptor (Homo sapiens) (UniProt P14416)",
    "assay result": 21.2
  },
  {
    "molecule": "CC(C)S(=O)(=O)c1oc(-c2ccc(F)cc2)nc1S(=O)(=O)c1ccc(F)cc1",
    "assay target": "D(2) dopamine receptor (Homo sapiens) (UniProt P14416)",
    "assay result": 6.9
  },
  {
    "molecule": "O=C(CCN1CCN(C/C=C/c2ccccc2)CC1)Nc1cccc(F)c1",
    "assay target": "D(2) dopamine receptor (Homo sapiens) (UniProt P14416)",
    "assay result": 1.58
  },
  {
    "molecule": "CCn1c(=O)cc(OCC(=O)Nc2cc(Cl)c(OC)cc2OC)c2ccccc21",
    "assay target": "D(2) dopamine receptor (Homo sapiens) (UniProt P14416)",
    "assay result": -0.253
  },
  {
    "molecule": "Cc1cc(C)c2oc(C(=O)Nc3c(C(=O)Nc4ccccc4)oc4ccccc34)cc(=O)c2c1",
    "assay target": "D(2) dopamine receptor (Homo sapiens) (UniProt P14416)",
    "assay result": 0.443
  },
  {
    "molecule": "CCc1ccc(Sc2cc(C(=O)NCCCOC(C)C)c3ccccc3n2)cc1",
    "assay target": "D(2) dopamine receptor (Homo sapiens) (UniProt P14416)",
    "assay result": 0.0547
  },
  {
    "molecule": "CCc1ccccc1NC(=O)Cn1c(=O)n(-c2cccc(C)c2)c(=O)c2c1c1cc(OC)ccc1n2C",
    "assay target": "D(2) dopamine receptor (Homo sapiens) (UniProt P14416)",
    "assay result": 0.643
  },
  {
    "molecule": "CCN(CC)S(=O)(=O)c1ccc2c(c1)N(CC(=O)NCc1ccccc1)C(=O)CS2",
    "assay target": "D(2) dopamine receptor (Homo sapiens) (UniProt P14416)",
    "assay result": -0.489
  },
  {
    "molecule": "Cc1ccccc1OCC(=O)Nc1c(C(=O)Nc2ccccc2F)oc2ccccc12",
    "assay target": "D(2) dopamine receptor (Homo sapiens) (UniProt P14416)",
    "assay result": -0.888
  },
  {
    "molecule": "CCOC(=O)N1CCN(Cc2nc3cc(NC(C)=O)ccc3n2C)CC1",
    "assay target": "D(2) dopamine receptor (Homo sapiens) (UniProt P14416)",
    "assay result": 0.585
  },
  {
    "molecule": "Cn1c(C(=O)NCCc2ccsc2)cc2c(=O)n(C)c3ccccc3c21",
    "assay target": "D(2) dopamine receptor (Homo sapiens) (UniProt P14416)",
    "assay result": 0.0188
  },
  {
    "molecule": "COC(c1ccccc1)c1nnc(CCC(=O)N2CCN(CCOc3ccccc3)CC2)o1 (stereo not drawn)",
    "assay target": "D(2) dopamine receptor (Homo sapiens) (UniProt P14416)",
    "assay result": 47
  }
]

Value source: PubChem BioAssay AID485358
